experiment: in vivo; conditions: mouse, iv
property: LD50 at 336 h

Q) Please report the measured LD50 at 336 h for CNC1CC(O)C(CO)OC1OC1C(OC2C(O)C(O)C(NC(=N)N)C(O)C2NC(=N)N)OC(C)C1(O)C=O (stereo not shown)
A) > 200 mg/kg
